# Tested on: mouse isolated extralobar pulmonary arteries
# experiment: Relaxation of pre-constricted mouse isolated extralobar pulmonary artery rings (isometric tension)
# Type: cell-based
# test_parameters: Mus musculus, 250 nM 5-HT, absence of L-NAME

# line_notation, assay_system, value_unit, EC50
measured = [
    ("Cc1ccc(=O)n(-c2ccc(OCCCN3CCCCC3)cc2)c1", "mouse isolated extralobar pulmonary arteries", "nM", 5.6),
]

====

# Test system: mouse isolated extralobar pulmonary arteries
# experiment: Relaxation of pre-constricted mouse isolated extralobar pulmonary artery rings (isometric tension)
# Assay type: cell-based
# test_parameters: Mus musculus, U46619 pre-contracted arteries
pEC50: −log10 of the molar value.

# line_notation, pEC50
measured = [
    ("Cc1ccc(=O)n(-c2ccc(OCCCN3CCCCC3)cc2)c1", 7.39),
]

====

# Tested on: mouse isolated extralobar pulmonary arteries
# experiment: Relaxation of pre-constricted mouse isolated extralobar pulmonary artery rings (isometric tension)
# Assay type: cell-based
# test_parameters: Mus musculus, 250 nM 5-HT, pre-treatment with L-NAME (100 μM)
pEC50: −log10 of the molar value.

# line_notation, pEC50
rows = [
    ("Cc1ccc(=O)n(-c2ccc(OCCCN3CCCCC3)cc2)c1", 8.00),
]

====

Entries annotated with measured EC50
# Tested on: mouse isolated extralobar pulmonary arteries
# experiment: Relaxation of pre-constricted mouse isolated extralobar pulmonary artery rings (isometric tension)
# Format: cell-based
# test_parameters: Mus musculus, intact rings pre-constricted with 250 nM 5-HT
# Excerpt: Mouse extralobar pulmonary arteries were isolated and prepared using a modification of a previously reported procedure (see e.g., Bockman et al., 1996, J. Pharmacol. Exp. Ther. 278:1235-1243). Mice were euthanized with CO2, the chest was opened, and the heart and lung combined were isolated from surrounding tissue. The main pulmonary artery was isolated from its origin at the right ventricle, past its bifurcation into the right and left pulmonary arteries. […]

# compound, EC50, µM
data = [
    ("Cc1ccc(=O)n(-c2ccc(OCCCN3CCCCC3)cc2)c1 [CXN-8]", 0.0052),
    ("Cc1ccc(=O)n(-c2ccccc2)c1 [pirfenidone, 5-methyl-1-phenylpyridin-2(1H)-one, reference compound]", 94),
]
